pIC50: −log10 of the molar value.
Target or system MERTK (Homo sapiens, UniProt Q12866); metric pIC50; compiled from varied reports.

{"columns": ["molecule", "pIC50"],
 "data": [
  ["CCC1(Nc2ncc3c(-c4ccc(CN5CCN(C)CC5)cc4)cc([C@H]4CC[C@H](O)CC4)n3n2)CCC1", "≥ 7.00"],
  ["C[C@@H]1CCCN1[C@@H]1CCc2cc(-c3cnc4[nH]nc(-c5ccc(S(=O)(=O)C6CC6)cc5)c4c3)cnc2CC1", "< 6.00"],
  ["COCC(C)Nc1ncc2c(-c3cnn(C4COC4)c3)cc(C3CCC(O)CC3)n2n1 (stereo not shown)", "≥ 7.00"],
  ["CN1CCC(COc2ccc(-c3ccc(C(=O)N4CC[C@@H](NC(=O)c5cc(-c6cnn(C)c6)cnc5N)C4)cc3)cc2)CC1", "6.00 to 7.00"],
  ["C[C@@H]1CCCN1C1(C)CCc2ccc(-c3cnc4[nH]nc(-c5ccc(S(=O)(=O)C6CCC6)cc5)c4c3)cc2CC1 (stereo partly shown)", "6.00 to 7.00"]
]}

Look up pIC50 for this molecule: COc1cc2nccc(Oc3ccc(NC(=O)c4nn(C(C)C)cc(-c5ccc(F)cc5)c4=O)cn3)c2cc1OC
9.00

What would you report for Cn1cc(-c2cnc(N)c(C(=O)N[C@@H]3CCN(C(=O)C(=O)c4ccccc4)C3)c2)cn1 ?
< 6.00

====

Target or system MERTK (Homo sapiens); metric pIC50; compiled from varied reports.
pIC50: −log10 of the molar value.

For orientation, consider the following solved cases.
{"columns": ["compound", "pIC50"],
 "data": [
  ["COC[C@H](C)Nc1ncc2c(-c3cnn([C@@H]4CCN(C)C4=O)c3)cc([C@H]3CC[C@H](O)CC3)n2n1", "≥ 7.00"],
  ["CS(=O)(=O)c1ccc(-c2n[nH]c3ncc(-c4ccc5c(c4)CCN(C4CCCC4)CC5)cc23)cc1", "6.00 to 7.00"],
  ["Cn1cc(-c2cnc(N)c(C(=O)N[C@@H]3CCN(C(=O)/C=C/c4ccc(CN5CCN(CCO)CC5)cc4)C3)c2)cn1", "< 6.00"]
]}

Look up pIC50 for this compound: CCCCC[C@H](C)Nc1ncc2c([C@H]3CC[C@@H](C(=O)N4CCN(C)CC4)CC3)cc([C@H]3CC[C@H](O)CC3)n2n1
≥ 7.00

What would you report for COC[C@H](C)Nc1ncc2c(-c3cncc(C(=O)N4CCCC4)c3)cc([C@H]3CC[C@H](O)CC3)n2n1 ?
≥ 7.00

What would you report for CCOc1ccn(-c2ccc(F)cc2)c(=O)c1C(=O)Nc1ccc(Oc2ccnc3cc(OCCCN4CCOCC4)c4c(c23)OCCO4)c(Cl)c1 ?
≥ 7.30

What would you report for Cn1cc(-c2cnc(N)c(C(=O)N[C@@H]3CCN(C(=S)NCc4ccccc4)C3)c2)cn1 ?
< 6.00

What would you report for CC(C)(O)c1ccc(-c2n[nH]c3ncc(-c4ccc5c(c4)CC4CCC(C5)C4N4CCCC4)cc23)cc1Cl (stereo not shown) ?
< 6.00

====

Target or system MERTK (Homo sapiens); metric pIC50; compiled from varied reports.
pIC50: −log10 of the molar value.

For orientation, consider the following solved cases.
{"columns": ["molecule", "propertyMeasured", "assayResult"],
 "data": [
  ["COc1cc2nccc(Oc3cc(C)c(NC(=O)c4cn(C)c(=O)n(-c5ccc(F)cc5)c4=O)cc3F)c2c2c1OCCO2", "pIC50", "≥ 7.30"],
  ["O[C@H]1CC[C@H](c2cnc(OC3CCNCC3)c3cnc(N[C@@H]4CCOC4)nc32)CC1", "pIC50", "≥ 7.00"],
  ["CC(C)(C)c1ccc(-c2nnc(-c3cc(-c4cnn(C5CCNCC5)c4)cnc3N)o2)cc1", "pIC50", "> 6.30"],
  ["COc1ccc(NC(=S)N2CC[C@@H](NC(=O)c3cc(-c4cnn(C)c4)cnc3N)C2)cc1", "pIC50", "< 6.00"],
  ["CC[C@H](C)Nc1ncc2c(N3CC[C@@H](N(C)C)C3)ncc([C@H]3CC[C@H](O)CC3)c2n1", "pIC50", "≥ 7.00"],
  ["COC[C@H](C)Nc1ncc2c(-c3ccnc(O[C@@H]4CCCN(C)C4)c3)cc([C@H]3CC[C@H](O)CC3)n2n1", "pIC50", "≥ 7.00"],
  ["CNC(=O)c1cc(-c2cc([C@H]3CC[C@H](O)CC3)n3nc(N[C@@H](C)COC)ncc23)cc(C)n1", "pIC50", "≥ 7.00"],
  ["COC[C@H](C)Nc1ncc2c(OC3CCOCC3)ncc([C@@H]3CCCN(C)C3)c2n1", "pIC50", "5.00 to 6.00"],
  ["COC[C@H](C)Nc1ncc2c(-c3ccnc(N4CCOCC4)c3)cc([C@H]3CC[C@H](O)CC3)n2n1", "pIC50", "≥ 7.00"],
  ["COC(=O)[C@@H]1C[C@H](NC(=O)c2cc(-c3cnn(C)c3)cnc2N)CN1C(=O)c1cccc(-c2ccccc2)c1", "pIC50", "< 6.00"]
]}

Hello, I am looking for reported pIC50 with MERTK (Homo sapiens) for CC[C@H](C)Nc1ncc2c(OC3C[C@@H](C)O[C@@H](C)C3)ncc([C@H]3CC[C@H](O)CC3)c2n1 (stereo partly shown) . Could you help?
≥ 7.00

What would you report for CN1CCN(Cc2ccc(-c3cccc(C(=O)N4CC[C@@H](NC(=O)c5cc(-c6cnn(C)c6)cnc5N)C4)c3)cc2)CC1 ?
< 6.00

What would you report for Nc1ncc(-c2ccccc2O)cc1C(=O)N[C@@H]1CCN(C(=O)c2ccc(-c3ccc(F)cc3Cl)cc2)C1 ?
6.00 to 7.00

What would you report for COC[C@H](C)Nc1ncc2c(-c3ccnc(N4CCC(C)(O)C4)c3)cc(C3CCC(O)CC3)n2n1 (stereo partly shown) ?
≥ 7.00

What would you report for C[C@@H](CC(F)(F)F)Nc1ncc2c(-c3cnn([C@H]4CCOC4)c3)cc([C@H]3CC[C@H](O)CC3)n2n1 ?
≥ 7.00

What would you report for COC[C@H](C)Nc1ncc2c(-c3cnn(C4COC4)c3)cc([C@H]3CC[C@@](C)(O)CC3)n2n1 (single isomer, unassigned) ?
≥ 7.00

What would you report for Nc1ncc(-c2cnn(C3CCNCC3)c2)cc1-c1nnc(-c2cnccn2)o1 ?
6.00 to 6.30

What would you report for CC1(C)CC(Nc2ncc3c(OC4CCOCC4)ncc([C@H]4CC[C@H](O)CC4)c3n2)C1 ?
≥ 7.00

What would you report for Cn1cc(-c2cnc(N)c(C(=O)NC[C@H]3CCN(C(=O)c4cccc(-c5ccccc5)c4)C3)c2)cn1 ?
< 6.00

What would you report for CCCC(C)Nc1ncc2c(=O)n(C3CCN(C)CC3)cc([C@H]3CC[C@H](O)CC3)c2n1 (stereo partly shown) ?
≥ 7.00

What would you report for CC1=C(C(=O)N2CC[C@@H](NC(=O)c3cc(-c4cnn(C)c4)cnc3N)C2)Cc2ccccc21 ?
< 6.00

What would you report for C[C@@H](CC(F)(F)F)Nc1ncc2c(OC3CCN(C)CC3)ncc([C@H]3CC[C@H](O)CC3)c2n1 ?
≥ 7.00
